- method: Inhibition of CREB-mediated gene transcription in human HEK293T cells by renilla luciferase reporter assay
- Assay type: cell-based
- conditionNotes: HEK-293T
propertyName: IC50

# annotated cases, reported IC50 shown
chemsmiles=Nc1ccc(NC(=O)c2cc3ccccc3cc2O)cc1 propertyname=IC50 measurement="> 50 µM"
chemsmiles=O=C(Nc1cnccn1)c1cc2ccccc2cc1O propertyname=IC50 measurement="> 50 µM"
chemsmiles=COc1ccc(NC(=O)c2cc3ccccc3cc2O)cc1 propertyname=IC50 measurement="> 50 µM"

Below: the item to evaluate.
Exercise: Return reported IC50; argument: O=C(Nc1ccc(F)cc1)c1cc2ccccc2cc1O
Key: 4.86 µM

Hello, the source for this data is ChEMBL document CHEMBL2203129, in case you need it.
